- targetOfAssay: human NK2 receptor (Homo sapiens, UniProt P21452)
- experimentSummary: [3H]SR48968 competition binding assay
- testParameters: [3H]SR48968 displacement, membranes of CHO cells stably expressing recombinant human NK2 receptor; Ki from IC50 by Cheng-Prussoff
endpoint: Ki (nM)

Known results for compounds:
CN(C(=O)c1ccc(Cl)cn1)[C@@H]1CN(C(=O)c2ccc(C#N)cc2)C[C@H]1c1ccc(Cl)c(Cl)c1 (racemic)    23.3
CN(C(=O)c1ccc(Cl)c(Br)c1)[C@H]1CN(C(=O)C2CCN(C(=O)C3(C)CC3)CC2)C[C@@H]1c1ccc(Cl)c(Cl)c1 (racemic)    0.8
COc1ccc(C(=O)N(C)[C@@H]2CN(C(=O)N3CCN(S(C)(=O)=O)[C@@H](C)C3)C[C@H]2c2ccc(Cl)c(Cl)c2)cc1C(F)(F)F    1.4

1. COc1ccc(C(=O)N(C)[C@H]2CN(C(=O)C3CCN(C(=O)C4(C)CC4)CC3)C[C@@H]2c2ccc(Cl)cc2)cc1C(F)(F)F (racemic)
2. CN(C(=O)c1cc(C(F)(F)F)ccc1F)[C@@H]1CN(C(=O)N2CCN(S(C)(=O)=O)CC2)C[C@H]1c1ccc(Cl)c(Cl)c1 (racemic)
3. COc1ncc(C(=O)N(C)[C@@H]2CN(C(=O)c3ccc(C#N)cc3)C[C@H]2c2ccc(Cl)c(Cl)c2)cn1 (racemic)
Prompt: With regard to Ki, arrange the entries in ascending order, please. Put the labels in the requested order and list them out.
Completion: 1, 2, 3
(1: 0.8 nM, 2: 9.5 nM, 3: 96 nM)

====

- targetOfAssay: human NK2 receptor (Homo sapiens)
- Sequence (P21452 1-398): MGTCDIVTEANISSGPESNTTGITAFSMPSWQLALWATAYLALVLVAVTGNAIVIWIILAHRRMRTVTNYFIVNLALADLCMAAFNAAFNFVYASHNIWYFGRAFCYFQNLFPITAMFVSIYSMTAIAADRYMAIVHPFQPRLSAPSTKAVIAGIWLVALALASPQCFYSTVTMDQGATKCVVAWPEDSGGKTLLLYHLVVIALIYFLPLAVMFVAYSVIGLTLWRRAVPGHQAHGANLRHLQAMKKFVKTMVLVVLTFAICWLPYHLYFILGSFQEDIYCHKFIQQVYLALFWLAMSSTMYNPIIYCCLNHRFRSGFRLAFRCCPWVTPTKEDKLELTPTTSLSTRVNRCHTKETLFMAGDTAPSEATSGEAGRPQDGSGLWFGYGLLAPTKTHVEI
- experimentSummary: [3H]SR48968 competition binding assay
- testParameters: [3H]SR48968 displacement, membranes of CHO cells stably expressing recombinant human NK2 receptor; Ki from IC50 by Cheng-Prussoff
pKi: −log10 of the molar value.
endpoint: pKi

Answered cases to consult:
CCc1cc(Cl)cc(C(=O)N(C)[C@@H]2CN(C(=O)c3ccc(C#N)cc3)C[C@H]2c2ccc(Cl)c(Cl)c2)n1 (racemic)    7.13
CCN(C(=O)c1ccc(OC)c(C(F)(F)F)c1)[C@@H]1CN(C(=O)N2CCN(S(C)(=O)=O)CC2)C[C@H]1c1ccc(Cl)c(Cl)c1 (racemic)    7.17
CN(C(=O)c1cc(Cl)ccn1)[C@@H]1CN(C(=O)c2ccc(C#N)cc2)C[C@H]1c1ccc(Cl)c(Cl)c1 (racemic)    7.89
CN(C(=O)c1cccc(F)c1)[C@@H]1CN(C(=O)N2CCN(S(C)(=O)=O)CC2)C[C@H]1c1ccc(Cl)c(Cl)c1 (racemic)    7.02

A. CN(C(=O)c1ccc(Cl)cc1)[C@@H]1CN(C(=O)N2CCN(S(C)(=O)=O)CC2)C[C@H]1c1ccc(Cl)c(Cl)c1 (racemic)
B. CN(C(=O)CCC1CC1)[C@H]1CN(C(=O)C2CCN(C(=O)C3(C)CC3)CC2)C[C@@H]1c1ccc(Cl)c(Cl)c1 (racemic)
Prompt: Compare A and B by numeric pKi and name the larger one. Respond using the label that marks the chosen record.
Completion: A
